- experimental system: human OX2R (Homo sapiens)
- Sequence (O43614 whole entry): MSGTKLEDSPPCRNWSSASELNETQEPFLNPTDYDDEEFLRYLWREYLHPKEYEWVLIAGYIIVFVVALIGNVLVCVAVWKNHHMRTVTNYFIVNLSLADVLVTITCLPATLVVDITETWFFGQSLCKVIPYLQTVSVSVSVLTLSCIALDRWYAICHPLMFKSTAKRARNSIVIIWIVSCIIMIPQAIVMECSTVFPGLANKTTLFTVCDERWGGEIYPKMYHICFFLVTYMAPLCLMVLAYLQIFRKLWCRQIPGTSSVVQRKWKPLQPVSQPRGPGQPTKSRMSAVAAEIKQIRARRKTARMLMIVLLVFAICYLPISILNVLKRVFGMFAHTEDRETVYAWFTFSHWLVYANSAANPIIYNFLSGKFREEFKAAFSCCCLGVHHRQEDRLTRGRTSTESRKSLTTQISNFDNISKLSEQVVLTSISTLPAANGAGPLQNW
- assay comment: IPOne (IP-1) orexin receptor agonist assay in CHO cells expressing human OX2R
- recorded conditions: IPOne assay, CHO cells expressing human OX2R, 2 hours incubation; read-out: hoX2R_IP IC50
readout type: IC50 (nM)

A selection of reference data follows.
COC(=O)N1[C@H](C)C[C@H](NS(=O)(=O)N(C)C)[C@@H]1COC1CCC2(c3cc(F)cc(F)c3)CC2C1 (stereo partly shown); 604
CC(C)OC(=O)N1[C@H](C)C[C@H](NS(=O)(=O)N(C)C)[C@@H]1COC1CCC2(c3ncccn3)CC2C1 (stereo partly shown); 7.5
COC(=O)N1[C@H](C)C[C@H](NS(C)(=O)=O)[C@@H]1CO[C@H]1CC[C@@]2(c3ncc(Cl)cn3)C[C@H]2C1 (single isomer, unassigned); 2.8
COC(=O)N1[C@@H]2CCC[C@@H]2[C@H](NS(=O)(=O)CF)[C@@H]1COC1CCC2(c3ncc(F)cn3)CC2C1 (stereo partly shown); 1.4
COC(=O)N1[C@H](C)C[C@H](NS(C)(=O)=O)[C@@H]1COC1CCC2(c3ncc(Cl)cn3)CC2C1 (stereo partly shown); 11.1

P: C[C@@H]1C[C@H](NS(C)(=O)=O)[C@H](CO[C@H]2CC[C@@]3(c4ncc(F)cn4)C[C@H]3C2)N1C(=O)OCCF
Q: CC(C)OC(=O)N1[C@H](C)C[C@H](NS(=O)(=O)CF)[C@@H]1COC1CCC2(c3ncc(Cl)cn3)CC2C1 (stereo partly shown)
Hi, I'm comparing P with Q and wondering which one has the bigger number for IC50. Any idea? API: response body contains the label of the selected item.
Q
(Q: 4.5 nM, P: 1.7 nM)

I: CC(C)OC(=O)N1[C@H](C)C[C@H](NS(=O)(=O)N(C)C)[C@@H]1CO[C@@H]1CC[C@]2(c3ncccn3)C[C@@H]2C1 (single isomer, unassigned)
II: COC(=O)N1[C@H](C(F)F)C[C@H](NS(=O)(=O)C(C)C)[C@@H]1COC1CCC2(c3ncc(F)cn3)CC2C1 (stereo partly shown)
Compare I and II and name the one whose reported IC50 is smaller. Let me know the label of the one you choose.
II

1: COC(=O)N1[C@H](C)C[C@H](NS(C)(=O)=O)[C@@H]1CO[C@@H]1CC[C@]2(c3ncc(F)cn3)C[C@@H]2C1 (single isomer, unassigned)
2: CCS(=O)(=O)N[C@H]1C[C@@H](C)N(C(=O)OC)[C@H]1CO[C@@H]1CC[C@]2(c3ncc(F)cn3)C[C@@H]2C1
Given 1 and 2 , report the one with the higher recorded IC50. In your reply, give the label of the chosen option.
1
(1: 24.5 nM, 2: 13.8 nM)

1: CCC(C)S(=O)(=O)N[C@H]1C[C@@H](C)N(C(=O)OC)[C@H]1CO[C@H]1CC[C@@]2(c3ncc(F)cn3)C[C@H]2C1 (stereo partly shown)
2: CCS(=O)(=O)N[C@H]1C[C@@H](C)N(C(=O)OC)[C@H]1CO[C@H]1CC[C@@]2(c3ncc(F)cn3)C[C@H]2C1
Between 1 and 2 , which one has the lower reported IC50 value? // respond with label for picked entry
2
(2: 0.93 nM, 1: 8 nM)
